Collected literature values of Ki measured for Adenosine receptor A1 (Rattus norvegicus, UniProt P25099).
- experimental target: Adenosine receptor A1 (Rattus norvegicus, UniProt P25099)
- Sequence (P25099 whole entry): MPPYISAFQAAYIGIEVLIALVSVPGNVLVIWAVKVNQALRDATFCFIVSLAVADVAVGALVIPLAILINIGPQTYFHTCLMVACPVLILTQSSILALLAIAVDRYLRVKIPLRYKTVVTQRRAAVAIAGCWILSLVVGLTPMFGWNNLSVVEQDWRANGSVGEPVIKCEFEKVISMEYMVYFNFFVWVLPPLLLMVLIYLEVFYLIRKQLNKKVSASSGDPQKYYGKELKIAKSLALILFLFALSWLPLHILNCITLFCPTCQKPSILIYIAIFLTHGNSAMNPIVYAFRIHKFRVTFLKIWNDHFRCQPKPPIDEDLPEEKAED
Ranges used to classify Ki: lower range = under 80 nM, middle range = from 80 nM up to 500 nM, upper range = 500 nM and over

Previously resolved entries follow.
> print(dat)
                                   compound  class.assignment
1  Nc1nc(Cl)nc2c1ncn2[C@@H]1O[C@H](CO)[C@@H](O)[C@H]1O       lower range
2  CCCn1c(=O)c2c(nc3n2CCCN3CCc2ccc(OCCN(CC)CC)cc2)n(CCC)c1=O      middle range
3               Nc1nc2c3ccccc3[nH]c(=S)n2n1       upper range
4  COc1cccc(CCOc2nc(N)c3ncn(C4O[C@H](CO)[C@@H](O)[C@H]4O)c3n2)c1 (stereo not given in full)       upper range

Shifting focus to the compound that follows.
Determine which band this compound sits in: COc1cc(/C=C/c2nc3c(c(=O)n(C)c(=O)n3C)n2C)cc(OC)c1OC upper range
